test system: NNMT protein-overexpressing NCI-H82 cell (NCI-H82 (ov-NNMT)); assay: Cell viability, Promega CellTiter-Glo kit, NNMT protein-overexpressing NCI-H82 cell; assay type: cell-based, human; details: NCI-H82 with NNMT gene inserted via viral vector (NNMT protein overexpressed); n=3
pIC50: −log10 of the molar value.
experimental readout: pIC50

>>> observed_result("CCN(CC)CCNC(=O)c1c(C)[nH]c(/C=C2\\C(=O)Nc3ccc(F)cc32)c1C [Sunitinib malate, sunitinib malate]")
5.48

---

test system: SW48 (human colon adenocarcinoma cell); experiment: Cell viability, Promega CellTiter-Glo kit (intracellular ATP), SW48; type: cell-based; settings: SW48; sensitive group; 3-4 days of culture; n=3; read-out: IC50 (50% inhibiting concentration), inhibitory effect on cell line
pIC50: −log10 of the molar value.
experimental readout: pIC50

>>> observed_result("CCN(CC)CCNC(=O)c1c(C)[nH]c(/C=C2\\C(=O)Nc3ccc(F)cc32)c1C [Sunitinib malate, sunitinib malate]")
5.83
